Values from PubChem BioAssay (NCATS)

test: Cell Viability - LYMP2-020 (AID 986); conditions: series mostly up to 92.2 µM;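 note: cells exposed to compound for 24 h at 37 °C; nearly all actives have a fitted effect of over 55% in size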
Results filed as inconclusive are left out. Active and inactive are the calls of the source. Calls come from the whole dose curve; as a rule, active = well fitted cell-killing curve with a large enough effect; inconclusive = small, poorly fitted or top-dose-only effect; inactive = flat fitted curve, though single readings scatter.
Allowed answers: y for active, n for inactive

Previously resolved entries follow.
- CCSC(=O)Cl: n
- O=C1C(Cl)=C(Cl)C(=O)C(Cl)=C1Cl: y
- CCNc1nc(Cl)nc(NC(C)C)n1: n
- C=CC1CC=CCC1 (configuration not stated): n
- CCOc1ccc(N)cc1: n

For this compound, state the assay outcome: CCOP(=S)(OCC)Oc1ccc([N+](=O)[O-])cc1 n

For this compound, state the assay outcome: C=CC(N)=O n
